The measured values listed here are drawn from patent US20110112193A1.

target: Recombinant human LTC4 synthase (Homo sapiens, UniProt Q16873); construct: made in house; host or cells: Pichia pastoris ('Piccia pastoralis' [sic]); experiment: LTC4 synthase in vitro assay (e.g. by HTRF detection); type: biochemical
Sequence (Q16873 whole entry): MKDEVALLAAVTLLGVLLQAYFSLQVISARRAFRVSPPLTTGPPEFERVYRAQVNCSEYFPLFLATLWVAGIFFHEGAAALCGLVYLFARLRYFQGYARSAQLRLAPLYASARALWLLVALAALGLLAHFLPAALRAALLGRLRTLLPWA
Exercise: state measured IC50 for each of the molecules provided.
Unit nM implied. Number only.

Data request: Return IC50 for the following molecule: `O=C(O)c1cc(Oc2ccc(Nc3ccc(F)c(F)c3)cc2C(=O)O)ccc1Nc1ccc(F)c(F)c1`
Data returned: 2030

Data request: Entry `CCCCOc1ccc(S(=O)(=O)Nc2ccc(Oc3ccc(Nc4ccc(F)c(F)c4)cc3C(=O)O)cc2)cc1` needs its IC50 filled in; supply it.
Data returned: 243

Data request: Give the reported value of IC50 for this record: `CCCCOc1ccc(S(=O)(=O)Nc2ccc(Oc3ccc(Nc4ccc(F)c(F)c4)cc3C(=O)O)cc2C(=O)O)cc1`
Data returned: 1020

Data request: Return reported IC50. Input molecule: `O=C(O)c1cc(Nc2ccc(F)c(F)c2)ccc1Oc1ccc(Nc2ccc(F)c(F)c2)cc1`
Data returned: 1900
